measured.target: T1, human TIGIT on cells (human, UniProt Q495A1 22-141)
T1 construct: also called Expi293 human TIGIT over-expressing cells
T1 sequence: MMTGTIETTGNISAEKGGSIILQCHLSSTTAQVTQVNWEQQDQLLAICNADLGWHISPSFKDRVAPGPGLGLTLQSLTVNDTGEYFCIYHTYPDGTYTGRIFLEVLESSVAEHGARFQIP
assay.text: FACS titration on human TIGIT OE Expi293 cells, binding site concentration; ± 95% CI; 'Fit: Excellent'
Task for the reader: assign each of the following binders its reported pKd.
Give bare numbers, as −log10 of the molar value.

Example cases with answers are listed next.
binder	pKd
CHA.9.547.7.H4(S241P) (antibody, human IgG4 S228P, kappa, V domains shown, humanized hybridoma anti-TIGIT antibody, human IgG4) VH: EVQLVESGGGLVQPGGSLRLSCAASGFTFSSYIMSWVRQAPGKGLEWVATISGGGTNTYYADSVKGRFTISRDNSKNTLYLQMNSLRAEDTAVYYCAKWLLSYYAMDYWGQGTLVTVSS VL: DIQMTQSPSSLSASVGDRVTITCRASQNINVWLTWYQQKPGKAPKLLIYKASKSHTGVPSRFSGSGSGTDFTLTISSLQPEDFATYYCQQGQSYPYTFGQGTKLEIKR	9.09
CPA.9.083.H4(S241P) (antibody, human IgG4, V domains shown) VH: EVQLVETGGGLIQPGRSLRLSCAASGFTFSSYAMHWVRQAPGKGLEWVAVISYDGTPVYYADSVKGRFTISRDNSKNTLYLQMNSLRAEDTAVYYCARDPLPLHYYGMDVWGQGTTVTVSS VL: QSALTQPRSASGNPGQRVTISCSGSSSNMGRRPVNWYQQIPGTAPKLLIYSQNQRPSGVPDRFSGSQSGTSASLTISGLQSEDEAEYFCAVWDGDRRSLQLGGGTQLAVLG	9.41
BM29 hIgG4 (antibody, V domains shown, benchmark anti-human TIGIT antibody, human IgG4 with S241P; also called BM29-H4; US2016/0176963A1 Clone 22G2 as hIgG4) VH: QVHLQESGPGLVKPSETLSLTCTVSGGSVSSGIYYWSWIRQPPGKGLEWIGYIYYSGSTNYNPSLKSRVTISVDTSKNQFSLKLSSVTAADTAVYYCARDYYVSGNYYNVDYYFFGVDVWGQGTTVTVSS VL: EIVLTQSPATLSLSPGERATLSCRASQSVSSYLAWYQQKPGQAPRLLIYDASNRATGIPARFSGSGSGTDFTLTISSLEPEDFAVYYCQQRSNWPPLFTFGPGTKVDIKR	8.82

QUERY: Record request: pKd value, item CHA.9.547.13.H4(S241P) (antibody, human IgG4, V domains shown, humanized hybridoma antibody, human IgG4 (S241P)) VH: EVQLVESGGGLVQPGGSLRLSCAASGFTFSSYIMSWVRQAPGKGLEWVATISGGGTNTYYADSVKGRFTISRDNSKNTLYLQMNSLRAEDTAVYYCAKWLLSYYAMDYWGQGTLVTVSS VL: DIQMTQSPSSLSASVGDRITITCRASQNINVWLSWYQQKPGKAPKLLIYKASKSHTGVPSRFSGSGSGTDFTLTISSLQPEDFATYYCQQGQSYPYTFGQGTKLEIK
RESULT: 9.15

Values were extracted from patent US20240075137A1.
